- EXPERIMENTAL SYSTEM: HLA-G expressed on the cell surface (human, UniProt P17693 25-338)
- METHOD NOTES: cell-based or functional assay
Recorded EC50 (nM), ADCC reporter assay on SKOV-3/HLA-G cells, one value per entry.
Write the value in nM as a bare number.

2F1CDRH3#10 (antibody, human IgG1, kappa, V domains shown) VH: EVQLVESGGGLVQPGGSLRLSCAASGFTFSSYAMSWVRQAPGKGLEWVSRISGSGGYKYYADSVKGRFTISRDNSKNTLYLQMNSLRAEDTAVYYCAKEGTSSYRGWMDVWGQGTLVTVSS VL: IQMTQSPSSLSASVGDRVTITCRASQSISNYLNWYQQKPGKAPKLLIYATSTLQSGVPSRFSGSGSGTDFTLTISSLQPEDFATYYCQQSYTTPWTFGQGTKVEIKR : 0.08

Form field: reported EC50 (nM), ADCC reporter assay on SKOV-3/HLA-G cells of Positive control antibody (antibody, human IgG1, kappa, V domains shown) VH: QLQLQESGPGLVKPSETLSLTCTVSGGSISSSSTYWSWIRQPPGKGLEWIGGIAYSGSTYYNPSLKSRVTISVDTSKNQFSLKLSSVTAADTAVYYCARGVRRAVPEDYWGQGTLVTVSS VL: EIVLTQSPGTLSLSPGERATLSCQASQAVSSNYLAWYQQKPGQAPRLLIYGASSRATGIPDRFSGSGSGTDFTLTISRLEPEDFAVYYCQQVVHSPYTFGGGTKVEIKR 1.59

Form field: reported EC50 (nM), ADCC reporter assay on SKOV-3/HLA-G cells of 2F1CDRH3#26 (antibody, human IgG1, kappa, V domains shown) VH: EVQLVESGGGLVQPGGSLRLSCAASGFTFSSYAMSWVRQAPGKGLEWVSRISGSGSYTYYADSVKGRFTISRDNSKNTLYLQMNSLRAEDTAVYYCAKEGASSYRGWMDVWGQGTLVTVSS VL: DIQMTQSPSSLSASVGDRVTITCRASQSISNYLNWYQQKPGKAPKLLIYATSRLQSGVPSRFSGSGSGTDFTLTISSLQPEDFATYYCQQSHSTPWTFGQGTKVEIKR 0.1

Form field: reported EC50 (nM), ADCC reporter assay on SKOV-3/HLA-G cells of 2F1HS6LS#46 (antibody, human IgG1, kappa, V domains shown) VH: EVQLVESGGGLVQPGGSLRLSCAASGFTFSDYAMSWVRQAPGKGLEWVSRISQSGSYTYYADSVKGRFTISRDNSKNTLYLQMNSLRAEDTAVYYCAKEGTSSYRGWMDVWGQGTLVTVSS VL: DIQMTQSPSSLSASVGDRVTITCRASQSISNWLNWYQQKPGKAPKLLIYATSRLQSGVPSRFSGSGSGTDFTLTISSLQPEDFATYYCQQSYSTPWTFGQGTKVEIKR 0.15

Form field: reported EC50 (nM), ADCC reporter assay on SKOV-3/HLA-G cells of 2F1CDRH3#17 (antibody, human IgG1, kappa, V domains shown) VH: EVQLVESGGGLVQPGGSLRLSCAASGFTFSDYAMSWVRQAPGKGLEWVSRISGTGSYKYYADSVKGRFTISRDNSKNTLYLQMNSLRAEDTAVYYCAKEGTSTYRGWMDVWGQGTLVTVSS VL: DIQMTQSPSSLSASVGDRVTITCRASQSISNYLNWYQQKPGKAPKLLIYATSRLQSGVPSRFSGSGSGTDFTLTISSLQPEDFATYYCQQSYTTPWTFGQGTKVEIKR 0.07
